Type: physicochemical, mice
MEASUREMENT CONTEXT: stability, extracted QC sample in auto-sampler, spiked concentration 500
ASSAY ENDPOINT: Accuracy (RE, %) 4°C for 24 h
Please reply with the bare figure in % and do not write the unit itself.

MOLECULE: CC(C)=CCC[C@](C)(O)[C@H]1CC[C@]2(C)[C@@H]1[C@H](O)C[C@@H]1[C@@]3(C)CC[C@H](O[C@@H]4O[C@H](CO)[C@@H](O)[C@H](O)[C@H]4O[C@@H]4O[C@H](CO)[C@@H](O)[C@H](O)[C@H]4O)C(C)(C)[C@@H]3CC[C@]12C [Rg3, ginsenoside Rg3]
REPORTED: 0.4

May I ask what Accuracy (RE, %) 4°C for 24 h has been recorded for COc1c(O[C@@H]2O[C@H](C(=O)O)[C@@H](O)[C@H](O)[C@H]2O)cc(O)c2c(=O)cc(-c3ccccc3)oc12 [Wogonoside, wogonoside] ?
12.6

Now the molecule CCCCC[C@H](O)CC(=O)CCc1ccc(O)c(OC)c1 [(6)-Gingerol, 6-gingernol]
2

// next record O=c1c(O)c(-c2ccc(O)c(O)c2)oc2cc(O)cc(O)c12 [quercetin, quecertin]
14.72
